experiment: qHTS assay for small molecule disruptors of the mitochondrial membrane potential (AID 720635); details: HepG2 mitochondrial membrane potential, Mito-MPS dye ratio; series mostly up to 83.2 µM; also: potency is read from the fitted curve at half-maximal effect
Records with an inconclusive call do not appear. Active and inactive are the calls of the source. Calls follow the shape of the dose curve; as a rule, active = well fitted inhibition curve with a large enough effect in the signal ratio in the repeat runs; inconclusive = weak or mixed curves, or effect the other way; inactive = flat fitted curve, though single readings scatter; the % refers to the signal ratio.
For each of the compounds below, state its Potency.

Potency reading for `Oc1ccc(-c2ccc(O)cc2)cc1` : 43.5 µM (active)

Potency reading for `Cc1oc(-c2ccccc2)nc1CCOc1ccc(C[C@H](Nc2ccccc2C(=O)c2ccccc2)C(=O)O)cc1` : 61.1 µM (active)

Potency reading for `CNC(=O)c1cc(Oc2ccc(NC(=O)Nc3ccc(Cl)c(C(F)(F)F)c3)cc2)ccn1` : 0.88 µM (active)

Potency reading for `O=C1C=CC(=O)N1c1ccccc1` : 48.6 µM (active)

Potency reading for `Cc1ccc2ccc3cccc4ccc1c2c34` : 38.5 µM (active)

###

assay: qHTS assay to identify aromatase inhibitors - cell viability counter screen (AID 743084); settings: MCF-7 aro ERE viability, CellTiter-Fluor, 24 h; series mostly up to 70.3 µM;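 also: cells stimulated with testosterone during compound exposure; nearly all actives have a fitted effect of over 55% in size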
Inconclusive results are not listed. Activity calls are given as the source filed them. The call rests on the fitted dose curve; in most records, active means well fitted cell-killing curve with a large enough effect in the repeat runs; inconclusive means weak or mixed curves, or effect the other way; inactive means no such curve, though single readings can be large or run the other way.
Hello, when you answer, please use one of the following outcomes: active, inactive

Query: Short answer needed: outcome of this test for `CCOC(=O)C1=C(C)NC(C)=C(C(=O)OCC)C1c1ccccc1/C=C/C(=O)OC(C)(C)C` ?
Response: inactive

Query: Short answer needed: outcome of this test for `SCCCCCCCCS` ?
Response: inactive

Query: Short answer needed: outcome of this test for `Oc1ccc(-c2ccc(O)cc2)cc1` ?
Response: inactive

Query: Short answer needed: outcome of this test for `CCCCCCCC/C=C\CCCCCCCC(=O)NCc1ccc(O)c(OC)c1` ?
Response: inactive

Query: Short answer needed: outcome of this test for `Cc1cc2c(C(C)C)c(O)c(O)c(C=O)c2c(O)c1-c1c(C)cc2c(C(C)C)c(O)c(O)c(C=O)c2c1O` ?
Response: active

Query: Short answer needed: outcome of this test for `O=C1C=CC(=O)N1c1ccccc1` ?
Response: active

Query: Short answer needed: outcome of this test for `CCOC(=O)[C@@](C)(N)Cc1ccc(O)c(O)c1` ?
Response: inactive

Query: Short answer needed: outcome of this test for `Nc1cc(Cl)c([N+](=O)[O-])cc1O` ?
Response: active

Query: Short answer needed: outcome of this test for CN1[C@@H]2CC[C@@H]1CC(OC(=O)C(CO)c1ccccc1)C2 (stereo not given in full) ?
Response: inactive

Query: Short answer needed: outcome of this test for Clc1ccc(C(c2ccccc2Cl)C(Cl)Cl)cc1 (stereo not given) ?
Response: inactive

Query: Short answer needed: outcome of this test for CCCC(CC)CCCCCCCN (stereo not given) ?
Response: inactive

Query: Short answer needed: outcome of this test for `c1ccc(Sc2ccccc2)cc1` ?
Response: inactive

Query: Short answer needed: outcome of this test for `CC(=O)Nc1ccc(O)cc1` ?
Response: inactive

Query: Short answer needed: outcome of this test for CCCCC(CC)COC(=O)c1ccc(O)cc1 (stereo not given) ?
Response: active

Query: Short answer needed: outcome of this test for O=C1OC(OC(=O)c2cccnc2Nc2cccc(C(F)(F)F)c2)c2ccccc21 (stereo not given) ?
Response: inactive

Query: Short answer needed: outcome of this test for `CCCCOc1ccc(C(=O)CCN2CCCCC2)cc1` ?
Response: inactive

Query: Short answer needed: outcome of this test for `CCCCCCCCCCCCCC[n+]1ccccc1` ?
Response: active

Query: Short answer needed: outcome of this test for `CCN=C1C=CC(=C(c2ccc(N(CC)CC)cc2)c2ccc(N(CC)CC)cc2)c2ccccc21` ?
Response: active

Query: Short answer needed: outcome of this test for `O=C1c2c(O)ccc([N+](=O)[O-])c2C(=O)c2c([N+](=O)[O-])ccc(O)c21` ?
Response: active

Query: Short answer needed: outcome of this test for `Cc1ccc2ccc3cccc4ccc1c2c34` ?
Response: inactive

Query: Short answer needed: outcome of this test for `C/C=C/C(=O)Oc1c(CCCCCC(C)C)cc([N+](=O)[O-])cc1[N+](=O)[O-]` ?
Response: active

Query: Short answer needed: outcome of this test for `CCc1cccc(C)c1` ?
Response: inactive

Query: Short answer needed: outcome of this test for `CCO[Si](CCCSSSSCCC[Si](OCC)(OCC)OCC)(OCC)OCC` ?
Response: inactive

Query: Short answer needed: outcome of this test for `O=Cc1ccc(F)cc1` ?
Response: inactive

Query: Short answer needed: outcome of this test for `CCCCCCCCCCCCCCNCCO` ?
Response: inactive

Query: Short answer needed: outcome of this test for `N#CSCSc1nc2ccccc2s1` ?
Response: active

Query: Short answer needed: outcome of this test for CC1CCCNC1 (stereo not given) ?
Response: inactive

Query: Short answer needed: outcome of this test for CCCCOC(=O)C(C)CC (stereo not given) ?
Response: inactive

Query: Short answer needed: outcome of this test for `CCCCCCCC/C=C\CCCCCCCC(=O)OCCOC(=O)CCCCCCC/C=C\CCCCCCCC` ?
Response: inactive

Query: Short answer needed: outcome of this test for `CCCSS/C(CCO)=C(\C)N(C=O)Cc1cnc(C)nc1N` ?
Response: inactive

Query: Short answer needed: outcome of this test for `CC1(C)C(=O)N(Br)C(=O)N1Br` ?
Response: inactive

Query: Short answer needed: outcome of this test for CN1[C@@H]2CC[C@H]1CC(OC(=O)C(CO)c1ccccc1)C2 (stereo not given in full) ?
Response: inactive

Query: Short answer needed: outcome of this test for `C(=C/c1ccccc1)/c1ccccc1` ?
Response: inactive

Query: Short answer needed: outcome of this test for `CC(C)(c1cc(Br)c(OCCO)c(Br)c1)c1cc(Br)c(OCCO)c(Br)c1` ?
Response: inactive

Query: Short answer needed: outcome of this test for `COc1cc(C(=O)NS(=O)(=O)c2ccccc2C)ccc1Cc1cn(C)c2ccc(NC(=O)OC3CCCC3)cc12` ?
Response: inactive

Query: Short answer needed: outcome of this test for COc1cccc(CCc2ccccc2OCC(CN(C)C)OC(=O)CCC(=O)O)c1 (stereo not given) ?
Response: inactive

Query: Short answer needed: outcome of this test for `O=C(O)Cc1ccc(OCCNC[C@H](O)c2ccccc2)cc1` ?
Response: inactive

Query: Short answer needed: outcome of this test for `CCCCCCCCCCCCCCCC` ?
Response: inactive

Query: Short answer needed: outcome of this test for `CC(=O)Oc1ccc(C2(c3ccc(OC(C)=O)cc3)C(=O)Nc3ccccc32)cc1` ?
Response: inactive

Query: Short answer needed: outcome of this test for `COc1cc(C=C2CCC/C(=C\c3ccc(O)c(OC)c3)C2=O)ccc1O` ?
Response: active

Query: Short answer needed: outcome of this test for `O=C(O)c1cccc(Cl)n1` ?
Response: inactive

Query: Short answer needed: outcome of this test for `CC(C)(C)CC(C)(C)c1ccccc1O` ?
Response: active

Query: Short answer needed: outcome of this test for `CN(C)c1ccc(N=Nc2ccccc2C(=O)O)cc1` ?
Response: active

Query: Short answer needed: outcome of this test for `C[C@]12CC[C@H]3C(=CCc4cc(O)ccc43)[C@@H]1CCC2=O` ?
Response: inactive

Query: Short answer needed: outcome of this test for `NCCCC(O)(P(=O)(O)O)P(=O)(O)O` ?
Response: inactive

Query: Short answer needed: outcome of this test for `Oc1ccc(-c2ccccc2)c(Cl)c1` ?
Response: inactive

Query: Short answer needed: outcome of this test for `O[C@@H](c1cc(C(F)(F)F)nc2c(C(F)(F)F)cccc12)[C@H]1CCCCN1` ?
Response: active

Query: Short answer needed: outcome of this test for `CCCCCCCCCCCCN(CCO)CCO` ?
Response: active

Query: Short answer needed: outcome of this test for CC(O)C#CC(C)O (stereo not given) ?
Response: active

Query: Short answer needed: outcome of this test for `C[Si](C)(C)Cl` ?
Response: inactive

###

test: qHTS assay to identify small molecule antagonists of the constitutive androstane receptor (CAR) signaling pathway - cell viability counter screen (AID 1224837); conditions: HepG2-CYP2B6-hCAR viability, CellTiter-Fluor, 23 h, co-treated with 50 nM CITCO; series mostly up to 92.4 µM; also: nearly all actives have a fitted effect of over 45% in size
Records with an inconclusive call do not appear. Calls of active or inactive are those of the source. Calls come from the whole dose curve; as a rule, active = well fitted cell-killing curve with a large enough effect in the repeat runs; inconclusive = weak or mixed curves, or effect the other way; inactive = flat fitted curve, though single readings scatter.
ATTRIBUTE_MEASURED: Potency

c1cc(OCC2CO2)cc(OCC2CO2)c1 (stereo unspecified)
inactive
CCCCN(C)C
inactive
O=C(O)c1cccc(Cl)n1
inactive
Cn1cnc2ncnc(N)c21
inactive
C=C(C)C(=O)OCCC[Si](Cl)(Cl)Cl
inactive
COc1cccc(OC)c1O
inactive
CCCCCCCCC(C)=O
inactive
OCCCS
inactive

Potency reading for `CCN(CC)CCSC(=O)C(c1ccccc1)c1ccccc1` : inactive

Potency reading for `CCOC(/C=C(\C)CCC=C(C)C)OCC` : inactive

Potency reading for `CC(C)(C)c1n[nH]c(=O)n(N)c1=O` : inactive

Potency reading for `CCCCCCCCCCCCCCNCCO` : inactive

Potency reading for `CCCCCCCC(C)=O` : inactive

Potency reading for `CCCCCCCCCCCCCCCC` : inactive

Potency reading for `Clc1nc2ccccc2s1` : inactive

Potency reading for `CCc1c(Br)c(Br)c(Br)c(Br)c1Br` : inactive

Potency reading for `C[C@@H]1CC[C@H]2C(C)(C)[C@H]3C[C@@]12CC[C@@]3(C)O` : inactive

Potency reading for `O=c1cccc[nH]1` : inactive

Potency reading for `c1ccc2c(c1)CCC2` : inactive

Potency reading for CC1CNCC(C)O1 (stereo unspecified) : inactive

# credit: PubChem BioAssay (Tox21)
